The origin of these recorded values is patent US20160297884A1.

We begin with a simple list: items and their reported kon.
- Target Desc: T1, Human BCMA (human, UniProt Q02223 1-54, limits assumed)
- T1 construct: Soluble analyte in SPR; construct not described; also called huBCMA; B-cell maturation antigen
- T1 sequence (looked up): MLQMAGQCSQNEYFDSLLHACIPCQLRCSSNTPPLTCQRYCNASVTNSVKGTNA
- Assay: SPR, IgG immobilised, 37 C
Measurement Kind: kon (M⁻¹ s⁻¹)

Binder	Obs Value
L3.PY/H3.YA (antibody, V domains shown, IgG) VH: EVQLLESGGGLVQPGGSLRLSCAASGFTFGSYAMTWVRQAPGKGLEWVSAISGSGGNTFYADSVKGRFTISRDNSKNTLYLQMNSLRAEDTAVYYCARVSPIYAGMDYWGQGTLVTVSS VL: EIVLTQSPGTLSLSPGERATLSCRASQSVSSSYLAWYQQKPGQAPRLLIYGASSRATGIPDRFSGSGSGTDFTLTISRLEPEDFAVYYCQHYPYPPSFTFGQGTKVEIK	3.15e+06
L3.PY/L3.KY/H2.LT (antibody, V domains shown, IgG) VH: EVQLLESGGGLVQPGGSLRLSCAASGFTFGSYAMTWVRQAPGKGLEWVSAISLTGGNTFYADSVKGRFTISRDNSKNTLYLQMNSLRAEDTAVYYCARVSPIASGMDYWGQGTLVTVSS VL: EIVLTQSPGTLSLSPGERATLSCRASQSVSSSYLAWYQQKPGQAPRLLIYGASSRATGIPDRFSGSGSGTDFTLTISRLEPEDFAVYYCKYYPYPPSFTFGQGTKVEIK	2.92e+06
L3.PY/H2.QL (antibody, V domains shown, IgG) VH: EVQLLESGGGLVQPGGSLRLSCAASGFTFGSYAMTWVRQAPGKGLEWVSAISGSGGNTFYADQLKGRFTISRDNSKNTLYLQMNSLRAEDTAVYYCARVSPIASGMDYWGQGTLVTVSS VL: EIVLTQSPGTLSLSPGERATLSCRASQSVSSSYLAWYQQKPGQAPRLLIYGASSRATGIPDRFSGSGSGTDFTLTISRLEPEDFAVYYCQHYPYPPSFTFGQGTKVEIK	2.64e+06
L3.PY/L1.PH/H3.TAQ (antibody, V domains shown, IgG) VH: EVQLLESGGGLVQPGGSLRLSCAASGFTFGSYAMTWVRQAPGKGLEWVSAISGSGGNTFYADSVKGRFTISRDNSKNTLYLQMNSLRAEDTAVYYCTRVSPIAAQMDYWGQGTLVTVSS VL: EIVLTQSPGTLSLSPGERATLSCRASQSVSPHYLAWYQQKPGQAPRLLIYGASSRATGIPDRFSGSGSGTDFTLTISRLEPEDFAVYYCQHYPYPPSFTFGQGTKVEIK	3.58e+06
L3.PY/H3.AE (antibody, V domains shown, IgG) VH: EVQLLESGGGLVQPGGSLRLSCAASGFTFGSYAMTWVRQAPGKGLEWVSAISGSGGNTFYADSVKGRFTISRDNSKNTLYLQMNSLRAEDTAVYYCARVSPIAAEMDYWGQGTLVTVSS VL: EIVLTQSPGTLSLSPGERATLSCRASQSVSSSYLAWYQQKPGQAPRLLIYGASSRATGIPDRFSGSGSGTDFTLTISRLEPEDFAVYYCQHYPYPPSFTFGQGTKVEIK	3.29e+06
